// data source = the NIST ThermoML archive (doi:10.1016/j.fluid.2005.04.021)

assay-name: activity coefficient (dimensionless); of the first substance listed, at infinite dilution; xn = mol fraction of the nth substance listed
assay-setup: 328.15 K; Liquid; x1 = 0
List of activity coefficient values.

{"compound": "C#CCCCC [1-hexyne] + CCCCCCCCCCCCCC[P+](CCCCCC)(CCCCCC)CCCCCC.FC(F)(F)C(F)(F)[P-](F)(F)(F)(C(F)(F)C(F)(F)F)C(F)(F)C(F)(F)F", "activity coefficient": 0.41}
{"compound": "C1CCCC1 [cyclopentane] + CCCCCCCCCCCCCC[P+](CCCCCC)(CCCCCC)CCCCCC.FC(F)(F)C(F)(F)[P-](F)(F)(F)(C(F)(F)C(F)(F)F)C(F)(F)C(F)(F)F", "activity coefficient": 0.41}
{"compound": "CCO [ethanol] + CCCCCCCCCCCCCC[P+](CCCCCC)(CCCCCC)CCCCCC.FC(F)(F)C(F)(F)[P-](F)(F)(F)(C(F)(F)C(F)(F)F)C(F)(F)C(F)(F)F", "activity coefficient": 0.93}
{"compound": "CCCCC [pentane] + CCCCCCCCCCCCCC[P+](CCCCCC)(CCCCCC)CCCCCC.FC(F)(F)C(F)(F)[P-](F)(F)(F)(C(F)(F)C(F)(F)F)C(F)(F)C(F)(F)F", "activity coefficient": 0.59}
{"compound": "C#CCCCCCC [1-octyne] + CCCCCCCCCCCCCC[P+](CCCCCC)(CCCCCC)CCCCCC.FC(F)(F)C(F)(F)[P-](F)(F)(F)(C(F)(F)C(F)(F)F)C(F)(F)C(F)(F)F", "activity coefficient": 0.51}
